- ASSAY_INFO: chemical genetic growth profiling, strain panel (AID 1159580);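 note: tested at 20 µM; growth read once vehicle control cultures reached saturation at 30 °C; 1 = growth at the plate median or of vehicle wells; lower values mean less growth of the strain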
- MEASUREMENT_CONDITIONS: S. cerevisiae deletion strains, growth OD, locus YEL003W, strain gim4, active compounds read low
Hit rate of the full screen: of about 5,500 compounds, about 2,000 (36%) were called active. Roughly 18% stayed inconclusive and do not appear here. Some of the results follow.

{"COMPOUND": "COc1ccccc1OCC(O)COC(N)=O (stereo not given)", "normalized growth": 1}
{"COMPOUND": "COc1cc(O)c2c(c1)C(=O)c1cc(C)cc(O)c1C2=O", "normalized growth": 0.997}
{"COMPOUND": "CC(C)[C@@H]1CC[C@@H](C)C[C@H]1OC(=O)c1ccccc1", "normalized growth": 1.02}
{"COMPOUND": "CO/N=C(/C(=O)NC1C(=O)N2C(C(=O)OCOC(=O)C(C)(C)C)=C(/C=C\\c3scnc3C)CSC12)c1csc(N)n1 (stereo not given)", "normalized growth": 0.995}
{"COMPOUND": "CC1CC(OC(=O)c2ccccc2O)CC(C)(C)C1 (stereo not given)", "normalized growth": 0.974}
